B1: mRNA-splicing (parent)
chain: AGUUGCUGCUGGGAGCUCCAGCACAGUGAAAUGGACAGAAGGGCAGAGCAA

# Variants of: B1
# Method: exon inclusion enrichment index; higher = more inclusion; WT1 exon 5 minigene, HEK293
Decision: exon inclusion enrichment index compared against 0.08; not below it gives yes (1), below it gives no (0).

Exercise: Dear colleague, could you confirm whether G5A C6G U7G C9A C18A C19G has exon inclusion enrichment index at or above 0.08?
Key: no (0)

Exercise: Does exon inclusion enrichment index meet or surpass 0.08 for G5A C6U U7A C9A U10A ?
Key: no (0)

Exercise: hey, is exon inclusion enrichment index for this one >= 0.08? G5U G8U C9U A37U G38C
Key: no (0)

Exercise: Please indicate if the recorded exon inclusion enrichment index for G5A C6U U7A G8C C9G meets or exceeds 0.08.
Key: yes (1)

Exercise: Quick check, exon inclusion enrichment index >= 0.08? G5A C6U U7A G8U C9A G28C A29U
Key: no (0)

Exercise: Determine whether measured exon inclusion enrichment index meets or exceeds 0.08 for G5U C6G U7C G8A U10A
Key: yes (1)

Exercise: Quick check, exon inclusion enrichment index >= 0.08? C6G U7A
Key: no (0)

Exercise: Does G2U U3A have a reported exon inclusion enrichment index of at least 0.08?
Key: yes (1)

Exercise: Answer whether exon inclusion enrichment index of G5C C6U G8C C9U U10G G11A is greater than or equal to 0.08.
Key: yes (1)

Exercise: Tell me whether exon inclusion enrichment index is at least 0.08 here: C6A U7C C9A U10C G15A C16U
Key: yes (1)

Exercise: Please indicate if the recorded exon inclusion enrichment index for C6A U7C C9A U10C A14G G15A meets or exceeds 0.08.
Key: yes (1)

Exercise: Entry G2U U3A G5A C6G U7G C9A : is its exon inclusion enrichment index no less than 0.08?
Key: no (0)

Exercise: Could you verify whether the entry G5C C6G U7C U10C G48U shows exon inclusion enrichment index of no less than 0.08?
Key: yes (1)

Exercise: Confirm if exon inclusion enrichment index reported for the variant G5U G8U C9U G28U A29U is 0.08 or above.
Key: no (0)

Exercise: Quick check, exon inclusion enrichment index >= 0.08? A30C A31G
Key: yes (1)

Exercise: Reported exon inclusion enrichment index at or above 0.08? U3G G5C C6U G8C C9U U10C
Key: yes (1)

Exercise: Hello, I need to know if G5A C6U U7A G8U C9A U32A G33U has measured exon inclusion enrichment index not below 0.08. Thanks!
Key: no (0)

Exercise: Form field: exon inclusion enrichment index at least 0.08? Entry: G5U G8U C9U C22U A23C
Key: no (0)

Exercise: Dear colleague, could you confirm whether G5U G8U C9U G34A A35G has exon inclusion enrichment index at or above 0.08?
Key: no (0)

Exercise: Determine whether measured exon inclusion enrichment index meets or exceeds 0.08 for G5C C6U G8C C9U U10C G33U G34C
Key: yes (1)

Exercise: Determine whether measured exon inclusion enrichment index meets or exceeds 0.08 for G5C C6G U7C U10C G13U A14U
Key: yes (1)

Exercise: Given the entry G5A C6G U7G C9A A40G , answer whether its exon inclusion enrichment index meets or surpasses 0.08.
Key: no (0)

Exercise: Is exon inclusion enrichment index at least 0.08? Consider U4A G5C C6U U7A G8U C9A
Key: yes (1)

Exercise: Hi team, for G5A C6G U7G C9U U10A , is the recorded exon inclusion enrichment index at or above 0.08?
Key: no (0)

Exercise: State whether the measured exon inclusion enrichment index reaches 0.08, counting equality as reaching it, for G5U C6A U7C G8U C9U
Key: yes (1)

Exercise: Given G5A C6G U7G C9A A45U G46U , state whether its exon inclusion enrichment index is at least 0.08.
Key: no (0)

Exercise: Does G2U U3G G5A C6U U7A G8U C9A have a reported exon inclusion enrichment index of at least 0.08?
Key: yes (1)

Exercise: Form field: exon inclusion enrichment index at least 0.08? Entry: C6A U7C C9A U10C G33C
Key: yes (1)

Exercise: Does G5A C6G U7G C9A C24A A25C have a reported exon inclusion enrichment index of at least 0.08?
Key: no (0)

Exercise: Determine whether this variant has exon inclusion enrichment index no lower than 0.08: G5C C6U G8C C9U U10C G15C C16G
Key: yes (1)

Exercise: State whether the measured exon inclusion enrichment index reaches 0.08, counting equality as reaching it, for C6A U7C C9A U10C U17A C18G
Key: yes (1)

Exercise: Identify whether the reported exon inclusion enrichment index of the following variant is 0.08 or greater: G5A C6U U7A G8U C9A G42C G43A
Key: yes (1)

Exercise: Please tell me: is the variant G5A C6U U7A G8U C9G U10A at or over 0.08 in terms of exon inclusion enrichment index?
Key: no (0)

Exercise: # bool: exon inclusion enrichment index of G5C C6A U7C G8A U10A A20C >= 0.08
Key: yes (1)

Exercise: Identify whether the reported exon inclusion enrichment index of the following variant is 0.08 or greater: C6A U7A C9A
Key: yes (1)

Exercise: Would you say U4A G5C C6U G8C C9U U10C shows exon inclusion enrichment index at minimum 0.08?
Key: yes (1)

Exercise: Test whether the variant U32A G33C records exon inclusion enrichment index of 0.08 or higher.
Key: yes (1)

Exercise: hey, is exon inclusion enrichment index for this one >= 0.08? G5A U7C G8A U10C C24G
Key: yes (1)

Exercise: Could you please find out whether G5C C6G U7C U10C A29U A30C has exon inclusion enrichment index that meets 0.08 or exceeds it?
Key: yes (1)

Exercise: Hi, just wondering whether C6A U7C G8C U10C shows exon inclusion enrichment index of 0.08 or higher.
Key: yes (1)

Exercise: Form field: exon inclusion enrichment index at least 0.08? Entry: G5C C6A U7C G8A U10A A30C
Key: yes (1)

Exercise: Confirm if exon inclusion enrichment index reported for the variant G5C C6U G8C C9U U10C G15U is 0.08 or above.
Key: yes (1)
